experiment: Identifying Small Molecule Inhibitors of Pancreatic Cancer Stem Cells (SN12C, Adherent) (AID 1259358); conditions: viability/growth inhibition; series mostly up to 46.1 µM;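 also: cell survival measured after 48 h of compound exposure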
Records with an inconclusive call do not appear. The source made the active and inactive calls. Calls follow the shape of the dose curve; as a rule, active = well fitted cell-killing curve with a large enough effect; inconclusive = small, poorly fitted or top-dose-only effect; inactive = flat fitted curve, though single readings scatter.
Write down the outcome that applies. Available outcomes: y = active, n = inactive

[ask] Which outcome was assigned to S=c1nc[nH]c2nc[nH]c12 in this test?
[reply] y

[ask] Which outcome was assigned to CC(C)c1ccc2c(c1)c(SC(C)(C)C)c(CC(C)(C)C(=O)O)n2Cc1ccc(Cl)cc1 in this test?
[reply] n

[ask] Which outcome was assigned to Nc1cccc2c1CN(C1CCC(=O)NC1=O)C2=O (centres undefined) in this test?
[reply] n

[ask] Which outcome was assigned to CC(C)C[C@H](NC(=O)[C@H](Cc1ccccc1)NC(=O)c1cnccn1)B(O)O in this test?
[reply] y

[ask] Which outcome was assigned to CCN(CC)CCOc1ccc(Nc2ncc3cc(-c4c(Cl)cccc4Cl)c(=O)n(C)c3n2)cc1 in this test?
[reply] y

[ask] Which outcome was assigned to Cc1ccc(NC(=O)c2ccc(CN3CCN(C)CC3)cc2)cc1Nc1nccc(-c2cccnc2)n1 in this test?
[reply] n

[ask] Which outcome was assigned to C[C@@H](N)C1CCC(C(=O)Nc2ccncc2)CC1 (some centres undefined) in this test?
[reply] n

[ask] Which outcome was assigned to CCOC(=O)C1=C(O)C(=O)N(Cc2ccccc2)C1 in this test?
[reply] n

[ask] Which outcome was assigned to Cc1ccc(Nc2nccc(N(C)c3ccc4c(C)n(C)nc4c3)n2)cc1S(N)(=O)=O in this test?
[reply] y

----------
test system: Tov112D; assay: Primary qHTS to identify gynecologic anti-cancer compounds using libraries of approved drugs and bioactive compounds (AID 1345084); conditions: Gynecologic cancer cell panel viability, ATPlite luminescence, 48 h; series mostly up to 57.5 µM; also: nearly all actives have a fitted effect of over 55% in size
Results filed as inconclusive are left out. Activity calls are given as the source filed them. Calls follow the shape of the dose curve; as a rule, active = well fitted cell-killing curve with a large enough effect; inconclusive = small, poorly fitted or top-dose-only effect, or effect the other way; inactive = flat fitted curve, though single readings scatter.
Write down the outcome that applies. Available outcomes: y (active), n (inactive)

[ask] Which outcome was assigned to CC1(C)NC(=O)N(c2ccc([N+](=O)[O-])c(C(F)(F)F)c2)C1=O in this test?
[reply] n

[ask] Which outcome was assigned to Cc1ccc(S(=O)(=O)NC(=O)NN2CC3CCCC3C2)cc1 (stereo not given) in this test?
[reply] n

[ask] Which outcome was assigned to CCC[C@@H]1C[C@@H](C(=O)N[C@@H]([C@H]2O[C@H](SC)[C@H](O)[C@@H](O)[C@H]2O)[C@@H](C)O)N(C)C1 in this test?
[reply] n

[ask] Which outcome was assigned to Cc1ccc(C)c(OCCCC(C)(C)C(=O)O)c1 in this test?
[reply] n

[ask] Which outcome was assigned to S=c1nc[nH]c2nc[nH]c12 in this test?
[reply] y

[ask] Which outcome was assigned to CCC1=C(C)CN(C(=O)NCCc2ccc(S(=O)(=O)NC(=O)NC3CCC(C)CC3)cc2)C1=O (stereo not given) in this test?
[reply] n

[ask] Which outcome was assigned to CCCCN(CCCC)CCC(O)c1cc2c(Cl)cc(Cl)cc2c2cc(C(F)(F)F)ccc12 (stereo not given) in this test?
[reply] n

[ask] Which outcome was assigned to C=C(c1ccc(C(=O)O)cc1)c1cc2c(cc1C)C(C)(C)CCC2(C)C in this test?
[reply] n

[ask] Which outcome was assigned to CC(C)[C@H](N)C(=O)OCCOCn1cnc2c(=O)[nH]c(N)nc21 in this test?
[reply] n

[ask] Which outcome was assigned to COc1c(O)cc2c(c1O)[C@@H]1O[C@H](CO)[C@@H](O)[C@H](O)[C@H]1OC2=O in this test?
[reply] n

----------
molecular target: alpha-glucosidase (Oryza sativa, rice) (UniProt Q653V4); assay: Counterscreen for Glucocerebrosidase Inhibitors: qHTS Assay for Rice alpha-Glucosidase at pH 5.0 (AID 997); settings: rice alpha-glucosidase enzyme activity; series mostly up to 76.9 µM
Activity calls are given as the source filed them. Calls come from the whole dose curve; as a rule, active = well fitted curve in the direction sought with a large enough effect; inconclusive = small, poorly fitted or top-dose-only effect, or another doubt; inactive = no such curve, though single readings can be large or run the other way.

{"columns": ["SAMPLE SMILES", "outcome"],
 "data": [
  ["O=C(O)c1cccnc1Nc1cccc(C(F)(F)F)c1", "inactive"],
  ["CC1(C)NC(=O)N(c2ccc([N+](=O)[O-])c(C(F)(F)F)c2)C1=O", "inactive"],
  ["O=c1ccc2ccc(O)c(O)c2o1", "inactive"]
]}

----------
assay: Quantitative High-Throughput drug screen in 47 multiple myeloma cell lines against the NCATS MIPE library collection: H1112_PLB cell viability assay (AID 1918967; also: nearly all actives have a fitted effect of over 30% in size); conditions: H1112 myeloma cells viability, ATP luminescence, 48 h; series mostly up to 45.8 µM
Results filed as inconclusive are left out. The source made the active and inactive calls. Calls come from the whole dose curve; as a rule, active = well fitted cell-killing curve with a large enough effect; inconclusive = small, poorly fitted or top-dose-only effect, or effect the other way; inactive = no such curve, though single readings can be large or run the other way.
Write down the outcome that applies. Available outcomes: YES for active, NO for inactive

[ask] Which outcome was assigned to NC(=NCc1ccccc1)NC(=O)c1nc(Cl)c(N)nc1N in this test?
[reply] YES

[ask] Which outcome was assigned to O=C(CS(=O)Cc1ccco1)NCC=CCOc1cc(CN2CCCCC2)ccn1 (centres undefined) in this test?
[reply] NO

[ask] Which outcome was assigned to CCOC(=O)C1=C[C@@H](OC(CC)CC)[C@H](NC(C)=O)[C@@H](N)C1 in this test?
[reply] NO

[ask] Which outcome was assigned to CC1=C(C(=O)O)N2C(=O)[C@@H](NC(=O)[C@H](N)C3=CCC=CC3)[C@H]2SC1 in this test?
[reply] NO

[ask] Which outcome was assigned to CC(C)[C@H](N)C(=O)OCCOCn1cnc2c(=O)[nH]c(N)nc21 in this test?
[reply] NO

[ask] Which outcome was assigned to Oc1ccc(OCc2ccccc2)cc1 in this test?
[reply] NO

[ask] Which outcome was assigned to N[C@@H](Cc1cc(I)c(Oc2cc(I)c(O)c(I)c2)c(I)c1)C(=O)O in this test?
[reply] NO

[ask] Which outcome was assigned to O=C1NC(=O)C(c2ccccc2[N+](=O)[O-])=C1Nc1ccc(O)c(Cl)c1 in this test?
[reply] NO

[ask] Which outcome was assigned to O=Nc1c(-c2c(O)[nH]c3cc(Br)ccc23)[nH]c2ccccc12 in this test?
[reply] YES

[ask] Which outcome was assigned to CC(C)Oc1ccc2c(=O)c(-c3ccccc3)coc2c1 in this test?
[reply] NO

[ask] Which outcome was assigned to Nc1cccc2c1CN(C1CCC(=O)NC1=O)C2=O (centres undefined) in this test?
[reply] NO

[ask] Which outcome was assigned to CC1(C)CCC(C)(C)c2cc(NC(=O)c3ccc(C(=O)O)cc3)ccc21 in this test?
[reply] YES

[ask] Which outcome was assigned to CN(C)C(=O)COC(=O)Cc1ccc(OC(=O)c2ccc(N=C(N)N)cc2)cc1 in this test?
[reply] YES

[ask] Which outcome was assigned to CN(C)CCc1c[nH]c2ccc(Cn3cncn3)cc12 in this test?
[reply] NO

[ask] Which outcome was assigned to Cc1cc(Cl)ccc1OCCCC(=O)NO in this test?
[reply] YES

[ask] Which outcome was assigned to CCOC(=O)C1=C(O)C(=O)N(Cc2ccccc2)C1 in this test?
[reply] NO

[ask] Which outcome was assigned to CN(C)[C@@H](CCOc1cccc2ccccc12)c1ccccc1 in this test?
[reply] YES

[ask] Which outcome was assigned to O=C(O)c1cn(-c2ccc(F)cc2)c2cc(N3CCNCC3)c(F)cc2c1=O in this test?
[reply] NO

[ask] Which outcome was assigned to Cc1ccc(Nc2nccc(N(C)c3ccc4c(C)n(C)nc4c3)n2)cc1S(N)(=O)=O in this test?
[reply] YES

[ask] Which outcome was assigned to CCOc1cc(CC(=O)N[C@@H](CC(C)C)c2ccccc2N2CCCCC2)ccc1C(=O)O in this test?
[reply] NO

[ask] Which outcome was assigned to O=C(O)c1cc(=O)c2c(OCC(O)COc3cccc4oc(C(=O)O)cc(=O)c34)cccc2o1 in this test?
[reply] NO

[ask] Which outcome was assigned to O=c1c(O)c(-c2ccc(O)cc2O)oc2cc(O)cc(O)c12 in this test?
[reply] NO

[ask] Which outcome was assigned to Cc1cc(=O)oc2cc(O)ccc12 in this test?
[reply] NO

[ask] Which outcome was assigned to CNC[C@H](O)c1ccc(O)c(O)c1 in this test?
[reply] NO

[ask] Which outcome was assigned to Cn1c(NCCN(CCO)CCCc2ccc([N+](=O)[O-])cc2)cc(=O)n(C)c1=O in this test?
[reply] NO

[ask] Which outcome was assigned to Cc1cc2c(s1)Nc1ccccc1N=C2N1CCN(C)CC1 in this test?
[reply] NO

[ask] Which outcome was assigned to C[C@@H](N)C1CCC(C(=O)Nc2ccncc2)CC1 (some centres undefined) in this test?
[reply] YES

[ask] Which outcome was assigned to CCC(C)(Oc1ccc(C2(c3ccc(OC(C)(CC)C(=O)O)cc3)CCCCC2)cc1)C(=O)O (centres undefined) in this test?
[reply] NO

[ask] Which outcome was assigned to N=C(N=C(N)N)N1CCOCC1 in this test?
[reply] NO

[ask] Which outcome was assigned to CC1=C(C)C(=O)C(C(CCCCCC(=O)O)c2ccccc2)=C(C)C1=O (centres undefined) in this test?
[reply] NO

[ask] Which outcome was assigned to O=C(NC(Cc1cc(=O)[nH]c2ccccc12)C(=O)O)c1ccc(Cl)cc1 (centres undefined) in this test?
[reply] NO

[ask] Which outcome was assigned to Cc1ccc(NC(=O)c2ccc(CN3CCN(C)CC3)cc2)cc1Nc1nccc(-c2cccnc2)n1 in this test?
[reply] NO

[ask] Which outcome was assigned to O=P(O)(O)C(O)(Cn1ccnc1)P(=O)(O)O in this test?
[reply] NO

[ask] Which outcome was assigned to Cc1c(C(=O)NN2CCCCC2)nn(-c2ccc(Cl)cc2Cl)c1-c1ccc(Cl)cc1 in this test?
[reply] YES
